Values compiled from the supplement of paper PMC6555819.

Tested on: PXR:RXRa (NR concentration 270 nM, RXRa partner concentration 90 nM)
test: PBM binding z-score (relative to random genomic background probes); higher = stronger binding; sequences stand for … in GC…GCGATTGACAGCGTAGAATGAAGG
experimental.endpoint: PBM binding z-score
// response body must contain only the number

seq.string: TCTTGTATATCAATAGAGGTTAAGAAAGTGCGCT
experimental.endpoint: PBM binding z-score
value.measured: 3

Lookup result for CCGAATAGGTTATGGGGCATTCAGGCAACGGTGA ; measured PBM binding z-score: 0.141

Lookup result for ATCTCTAGGTAACAAGTACAGTGAAAGAGAGGAC ; measured PBM binding z-score: 0.221

Lookup result for CGTCCAAGGTCAGCAGGTAAGTGAAAGCGACGTG ; measured PBM binding z-score: 2.54

Lookup result for CTCGAAAGGTCGTTTGAGGTGAGTATACGGATAA ; measured PBM binding z-score: 5.25

Lookup result for CCTTATGGGTCACTGACAGGTTATAGCATTTGGA ; measured PBM binding z-score: 2.86

---

System: PXR:RXRa (NR concentration 270 nM, RXRa partner concentration 90 nM)
test: PBM binding z-score (relative to random genomic background probes); higher = stronger binding; sequences stand for … in GC…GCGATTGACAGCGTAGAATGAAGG
Each entry gets not satisfied if its PBM binding z-score stays under 2, and satisfied if its PBM binding z-score is 2 or above.

Below are worked cases with known answers.
seq.string: TCTCAAAGTTCAAAGGTAACGTAAGTATCCACAC
system: PXR:RXRa (NR concentration 270 nM, RXRa partner concentration 90 nM)
class.assignment: satisfied

seq.string: ATATGTAGGTTAAGGGTCATTTAGGTTGGTTCGC
system: PXR:RXRa (NR concentration 270 nM, RXRa partner concentration 90 nM)
class.assignment: satisfied

seq.string: ATATGTAGGTTAGCTGGGGTCATTCATACTAGGC
system: PXR:RXRa (NR concentration 270 nM, RXRa partner concentration 90 nM)
class.assignment: satisfied

seq.string: GCGACTGGGGCATTAGCAGGTTACCATAACTTAA
system: PXR:RXRa (NR concentration 270 nM, RXRa partner concentration 90 nM)
class.assignment: not satisfied

seq.string: TCTTGTAGATCAACAGGAGGTTAGGAAAGATCGA
system: PXR:RXRa (NR concentration 270 nM, RXRa partner concentration 90 nM)
class.assignment: not satisfied

Then this sequence:
Can GCTGCTAGGTCAATTGATGGTCAGCTAAAGCTCG be said to have PBM binding z-score at or above 2?
not satisfied

---

// reported PBM binding z-score per item
System: RXRa DBDmut IVT, anti-RXR (DBD mutation: RXRa K156A/R161A, NR concentration 90 nM)
test: PBM binding z-score (relative to random genomic background probes); higher = stronger binding; sequences stand for … in GC…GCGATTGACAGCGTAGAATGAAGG
// response body must contain only the number

Lookup result for ATATGTAGGTTACAGCCGGGTCATTCAGGCTATG ; measured PBM binding z-score: 0.721

Lookup result for CAAACTAGGTCACGTAAGGTCAAAGTCGAATGAC ; measured PBM binding z-score: 2.68

---

Tested on: PXR homodimer (NR concentration 270 nM)
test: PBM binding z-score (relative to random genomic background probes); higher = stronger binding; sequences stand for … in GC…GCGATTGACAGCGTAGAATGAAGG
// reported PBM binding z-score per item
// response body must contain only the number

Examples with their reported PBM binding z-score follow.
seq.string: CAAACTAGGACACCGGAAGGTCAAAGTCCGCATG
system: PXR homodimer (NR concentration 270 nM)
PBM binding z-score: 1.68
--
seq.string: ATCTCTAAGTAACCAAGTTCAGTGAATGCCGAAC
system: PXR homodimer (NR concentration 270 nM)
PBM binding z-score: 1.61

# input for lookup
Lookup result for ATATGTAGGTTCGCTGGGGTCATTCAGACTAGGC ; measured PBM binding z-score: 12.4

---

Test system: RARa homodimer (NR concentration 270 nM)
test: PBM binding z-score (relative to random genomic background probes); higher = stronger binding; sequences stand for … in GC…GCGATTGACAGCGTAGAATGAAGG
Each entry gets not met if its PBM binding z-score stays under 0.9, and met if its PBM binding z-score is 0.9 or above.

Below are worked cases with known answers.
seq.string: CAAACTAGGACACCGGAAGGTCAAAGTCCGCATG
class.assignment: met
//
seq.string: CAGCCTAAGTCAGGGCCAGTATAGGAGGAACGTT
class.assignment: not met
//
seq.string: TCTATTAGTGGATTAGGGCAACCGAAACAGCGGA
class.assignment: met

Can ATATGTTGGTTAAGGGTCATTCAGGTTGGTTCGC be said to have PBM binding z-score at or above 0.9?
met

Can GTTAGCAGGCCATTTGGGTCACTCAATGACGGGC be said to have PBM binding z-score at or above 0.9?
not met

---

Tested on: PPARg DBDmut IVT, anti-PPARg (DBD mutation: PPARg1 K132A/R137A, NR concentration 270 nM)
test: PBM binding z-score (relative to random genomic background probes); higher = stronger binding; sequences stand for … in GC…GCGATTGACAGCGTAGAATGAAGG
experimental.endpoint: PBM binding z-score
// response body must contain only the number

Examples with their reported PBM binding z-score follow.
seq.string: TAAACAGGGTCAAAGGCCAGAGTACGAATGTCGA
PBM binding z-score: 2.41

seq.string: TTACCAAGGTGCGCTGAGGTCGTTGATCCAACTC
PBM binding z-score: -0.343

seq.string: ATCTCGAGGTAAGACTCAGTTCAGTGAAGAACGC
PBM binding z-score: 0.502

seq.string: ATCTCTAGGTAACCAAGTTAAGTGAATGCCGAAC
PBM binding z-score: 1.07

seq.string: CGTCCAAGGTGAAAGGTCAGTGAAGAGATGACGG
PBM binding z-score: -0.702

seq.string: AATACAGGATCATCGTAGGCCAGAGTACGCACAG
PBM binding z-score: 0.381

seq.string: TCTGCTAGGTCAGTGGGTCAGCTAACGAGCTGCC
PBM binding z-score: -0.282

seq.string: CCTACTGGCCCAAGGTCATTGATCAGTCAAAGCA
PBM binding z-score: -0.271

# input for lookup
Lookup result for GCTACTGGGGCATCAGCAGGTTACCATAACTTAA ; measured PBM binding z-score: 0.741

---

Tested on: LXRa:RXRa (NR concentration 270 nM, RXRa partner concentration 90 nM)
test: PBM binding z-score (relative to random genomic background probes); higher = stronger binding; sequences stand for … in GC…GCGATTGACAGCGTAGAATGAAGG
Each entry gets class 0 if its PBM binding z-score stays under 3, and class 1 if its PBM binding z-score is 3 or above.

seq.string: CCTGCTAGGTCATGGTCAGCTTATCTACAGTATG
class.assignment: class 0
//
seq.string: ATCGAAAGGTCGAAGGGGAGTATACCCACCCGAA
class.assignment: class 1
//
seq.string: GCTTACGGGTCAAATGTTATAGCATGAATAGAAT
class.assignment: class 1
//
seq.string: TAGCCTAGGACATTCAGGGGCCAGTATAGAAAGC
class.assignment: class 0
//
seq.string: CTCGAAAGGTCGGTTGAGGAGAGTATACGGATAA
class.assignment: class 0

Can CCGACTGGGGCAAAGGTTTCCATACTCAGTACGA be said to have PBM binding z-score at or above 3?
class 0

Can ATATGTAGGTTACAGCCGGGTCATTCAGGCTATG be said to have PBM binding z-score at or above 3?
class 1

Can CGAACTAGGTCATCCAGGACAGTGACTACATTGA be said to have PBM binding z-score at or above 3?
class 0

Can CGAACGAGGGCATGAGTTGATAGTAAATGCCGAT be said to have PBM binding z-score at or above 3?
class 0

Can TCATATAGGTAAAGGTGAAAATCGAACGATATGA be said to have PBM binding z-score at or above 3?
class 0

Can TCTCGGAGGACACGAAGGTCACAGCTTTCCAGAG be said to have PBM binding z-score at or above 3?
class 0

Can TAGCCTAGGTCATGGGCCAATATACCACGCGAAC be said to have PBM binding z-score at or above 3?
class 1

Can TCGATTAGGTTACCAATGGGGCATTCAGCTTTCT be said to have PBM binding z-score at or above 3?
class 0

---

System: PPARg DBDmut:RXRa IVT, anti-PPARg (DBD mutation: PPARg1 K132A/R137A, NR concentration 270 nM, RXRa partner concentration 90 nM)
test: PBM binding z-score (relative to random genomic background probes); higher = stronger binding; sequences stand for … in GC…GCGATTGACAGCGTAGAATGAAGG
Each entry gets n if its PBM binding z-score stays under 1, and y if its PBM binding z-score is 1 or above.

Below are worked cases with known answers.
seq.string: TGAATGAGGTTATAAGTTCAGGGAACGTTGCAAA
class.assignment: n
//
seq.string: CCTTACTGGTCACGAGGTTATAGCACGACGAGCG
class.assignment: y
//
seq.string: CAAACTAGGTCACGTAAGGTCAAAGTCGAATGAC
class.assignment: y
//
seq.string: TTACCAAGGTGAGCTGAGGTCGTTTATCCAACTC
class.assignment: n
//
seq.string: CCTAGTTGGTCAAGGTCACTCACGCTATAGGTAC
class.assignment: n
//
seq.string: AGACTGAGGTTACCAAAGATCAGGGAAACGCTTG
class.assignment: n
//
seq.string: TCATATAGGTAAAGGTGATAGTCGAACGATATGA
class.assignment: y
//
seq.string: ATCTGTAGGTAACAAGTTCAGTGAAAGAGAGGAC
class.assignment: y

Can CCGACTGGGGCAAAGGTTACCATTCTCAGTACGA be said to have PBM binding z-score at or above 1?
n
